target: androgen receptor (Homo sapiens, UniProt P10275, T878A); construct: host or cells: LNCaP.FGC; assay: Androgen receptor degradation assay using Western blot analysis; type: cell-based; conditions: 24 h, read-out: Androgen Receptor Remaining (%), LNCaP.FGC cells, 100 nM, 24 hr, normalized to GAPDH, untreated cells = 100%
Sequence (P10275 whole entry T878A): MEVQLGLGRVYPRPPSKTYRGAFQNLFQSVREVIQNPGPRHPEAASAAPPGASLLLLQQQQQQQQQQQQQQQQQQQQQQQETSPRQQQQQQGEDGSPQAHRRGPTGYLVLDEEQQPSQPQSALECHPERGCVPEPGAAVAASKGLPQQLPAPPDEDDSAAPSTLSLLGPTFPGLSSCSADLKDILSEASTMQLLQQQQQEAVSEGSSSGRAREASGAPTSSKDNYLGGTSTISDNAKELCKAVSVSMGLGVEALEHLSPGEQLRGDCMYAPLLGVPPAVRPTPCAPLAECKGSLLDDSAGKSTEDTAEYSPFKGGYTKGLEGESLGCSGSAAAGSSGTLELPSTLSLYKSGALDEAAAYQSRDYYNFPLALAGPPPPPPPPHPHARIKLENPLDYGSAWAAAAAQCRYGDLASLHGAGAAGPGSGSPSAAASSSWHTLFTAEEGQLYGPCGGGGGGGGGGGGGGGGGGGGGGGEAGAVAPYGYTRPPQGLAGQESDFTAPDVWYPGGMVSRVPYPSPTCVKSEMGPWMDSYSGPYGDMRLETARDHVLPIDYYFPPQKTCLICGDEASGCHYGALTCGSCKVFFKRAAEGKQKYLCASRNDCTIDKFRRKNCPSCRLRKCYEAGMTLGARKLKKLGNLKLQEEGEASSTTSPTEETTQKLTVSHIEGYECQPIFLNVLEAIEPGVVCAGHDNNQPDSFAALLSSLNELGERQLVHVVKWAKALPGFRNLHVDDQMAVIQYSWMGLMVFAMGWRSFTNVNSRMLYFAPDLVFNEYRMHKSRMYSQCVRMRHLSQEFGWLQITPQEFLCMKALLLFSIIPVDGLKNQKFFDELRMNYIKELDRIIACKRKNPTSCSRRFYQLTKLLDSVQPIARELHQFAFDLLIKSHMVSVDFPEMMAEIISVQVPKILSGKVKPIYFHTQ
Sequence (Q96SW2 whole entry partner): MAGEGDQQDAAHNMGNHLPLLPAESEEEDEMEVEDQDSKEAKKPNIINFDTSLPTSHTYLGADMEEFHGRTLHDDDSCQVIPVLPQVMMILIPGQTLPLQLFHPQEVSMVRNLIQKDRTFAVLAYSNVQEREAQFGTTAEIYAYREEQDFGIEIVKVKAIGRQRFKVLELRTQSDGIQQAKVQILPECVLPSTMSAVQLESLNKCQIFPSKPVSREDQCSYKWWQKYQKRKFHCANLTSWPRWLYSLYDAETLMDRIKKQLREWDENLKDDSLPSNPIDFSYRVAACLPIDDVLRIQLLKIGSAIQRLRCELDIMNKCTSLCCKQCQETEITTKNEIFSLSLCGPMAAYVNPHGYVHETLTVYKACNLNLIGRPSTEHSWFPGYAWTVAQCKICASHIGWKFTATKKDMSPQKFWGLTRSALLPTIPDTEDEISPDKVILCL
hey, just use met if measured remaining activity at 0.1 µM is less than 40%, otherwise not met

Past entries and their recorded results:
# compound, target.under.test, label.value
data = [
    ("CCn1c2c(c3ccc(OCCC4CCN(c5ccc(C(=O)N[C@H]6CC[C@H](N(C)c7ccc(C#N)c(Cl)c7)CC6)nn5)CC4)cc31)C(=O)N(C1CCC(=O)NC1=O)C2=O (some centres unmarked)", "androgen receptor (Homo sapiens, UniProt P10275, T878A)", "met"),
    ("CCn1c2c(c3ccc(OCCCCN4CCN(c5ccc(C(=O)N[C@H]6CC[C@H](N(C)c7ccc(C#N)c(Cl)c7)CC6)nn5)CC4)cc31)C(=O)N(C1CCC(=O)NC1=O)C2=O (some centres unmarked)", "androgen receptor (Homo sapiens, UniProt P10275, T878A)", "met"),
]

hey, is remaining activity at 0.1 µM for CCn1c2c(c3ccc(OCC(=O)N4CCN(c5ccc(C(=O)N[C@H]6CC[C@H](Oc7ccc(C#N)c(Cl)c7)CC6)nn5)CC4)cc31)C(=O)N(C1CCC(=O)N(CO)C1=O)C2=O (some centres unmarked) lower than 40% or not? not met

Repeat with CC(C)n1c2c(c3cc(OCCN4CCN(c5ccc(C(=O)N[C@H]6C(C)(C)[C@H](Oc7ccc(C#N)c(Cl)c7)C6(C)C)cn5)CC4)ccc31)C(=O)N(C1CCC(=O)NC1=O)C2=O (some centres unmarked) not met

----------
We begin with a simple list: items and their reported remaining activity at 0.1 µM.
molecular target: androgen receptor (Homo sapiens, UniProt P10275, T878A); construct: host or cells: LNCaP.FGC; assay: Androgen receptor degradation assay using Western blot analysis; type: cell-based; settings: 24 h, read-out: Androgen Receptor Remaining (%), LNCaP.FGC cells, 100 nM, 24 hr, normalized to GAPDH, untreated cells = 100%
Numbers only; they are read as %.

Here is how some compounds turned out for remaining activity at 0.1 µM.
# compound, parameter.measured, units.label, data.value
records = [
    ("C[Si](C)(C)CCOCn1c2c(c3ccc(OCCCN4CCN(c5ccc(C(=O)N[C@H]6CC[C@H](Oc7ccc(C#N)c(Cl)c7)CC6)nn5)CC4)cc31)C(=O)N(C1CCC(=O)NC1=O)C2=O (some centres unmarked)", "remaining activity at 0.1 µM", "%", 62),
    ("CCn1c2c(c3ccc(OCCOCCN4CCN(c5ccc(C(=O)N[C@H]6CC[C@H](Oc7ccc(C#N)c(Cl)c7)CC6)nn5)CC4)cc31)C(=O)N(C1CCC(=O)NC1=O)C2=O (some centres unmarked)", "remaining activity at 0.1 µM", "%", 26),
]

Find the measured remaining activity at 0.1 µM: item CCn1c2c(c3ccc(OCCCOC4CCN(c5ccc(C(=O)N[C@H]6CC[C@H](N(C)c7ccc(C#N)c(Cl)c7)CC6)nn5)CC4)cc31)C(=O)N(C1CCC(=O)NC1=O)C2=O (some centres unmarked) , target or system androgen receptor (Homo sapiens, UniProt P10275, T878A). 19

Repeat with CCCn1c2c(c3ccc(OCCCN4CCN(c5ccc(C(=O)N[C@H]6C(C)(C)[C@H](Oc7ccc(C#N)c(Cl)c7)C6(C)C)cc5)CC4)cc31)C(=O)N(C1CCC(=O)NC1=O)C2=O (some centres unmarked) 88

Repeat with CCn1c2c(c3ccc(OCCOC4CC5(CCN(c6ccc(C(=O)N[C@H]7CC[C@H](N(C)c8ccc(C#N)c(Cl)c8)CC7)nn6)C5)C4)cc31)C(=O)N(C1CCC(=O)NC1=O)C2=O (some centres unmarked) 31

----------
molecular target: androgen receptor (Homo sapiens, UniProt P10275, T878A); construct: host or cells: LNCaP.FGC; assay: Androgen receptor degradation assay using Western blot analysis; format: cell-based; conditions: 24 h, read-out: Androgen Receptor Remaining (%), LNCaP.FGC cells, 100 nM, 24 hr, normalized to GAPDH, untreated cells = 100%
parameter.measured: remaining activity at 0.1 µM (%)
Numbers only; they are read as %.

Here is how some compounds turned out for remaining activity at 0.1 µM.
# compound, parameter.measured, data.value
records = [
    ("CCn1c2c(c3ccc(OCC(=O)N4CCC5(CC4)CN(c4ccc(C(=O)N[C@H]6CC[C@H](N(C)c7ccc(C#N)c(Cl)c7)CC6)nn4)C5)cc31)C(=O)N(C1CCC(=O)NC1=O)C2=O (stereo partly shown)", "remaining activity at 0.1 µM", 63),
    ("CCn1c2c(c3ccc(OCCOC4CCN(c5ccc(C(=O)N[C@H]6CC[C@H](Oc7ccc(C#N)c(Cl)c7)CC6)nn5)CC4)cc31)C(=O)N(C1CCC(=O)NC1=O)C2=O (stereo partly shown)", "remaining activity at 0.1 µM", 109),
    ("CCn1c2c(c3ccc(OCCN4CCN(c5ccc(C(=O)N[C@H]6CC[C@H](N(C)c7ccc(C#N)c(Cl)c7)CC6)nn5)CC4)cc31)C(=O)N(C1CCC(=O)NC1=O)C2=O (stereo partly shown)", "remaining activity at 0.1 µM", 60),
]

// returns reported remaining activity at 0.1 µM for input CCn1c2c(c3ccc(OCCCN4CC5CCC(C4)N5c4ccc(C(=O)N[C@H]5CC[C@H](Oc6ccc(C#N)c(Cl)c6)CC5)nn4)cc31)C(=O)N(C1CCC(=O)NC1=O)C2=O (stereo partly shown) 77

Repeat with CCn1c2c(c3ccc(OCCOC4CC5(CCN(c6ccc(C(=O)N[C@H]7CC[C@H](N(C)c8ccc(C#N)c(Cl)c8)CC7)nn6)CC5)C4)cc31)C(=O)N(C1CCC(=O)NC1=O)C2=O (stereo partly shown) 30

Repeat with CC(C)n1c2c(c3cc(OCCN4CCN(c5ccc(C(=O)N[C@H]6C(C)(C)[C@H](Oc7ccc(C#N)c(Cl)c7)C6(C)C)nc5)CC4)ccc31)C(=O)N(C1CCC(=O)NC1=O)C2=O (stereo partly shown) 155

Repeat with CCn1c2c(c3ccc(OCCN4[C@H](C)CN(c5ccc(C(=O)N[C@H]6CC[C@H](Oc7ccc(C#N)c(Cl)c7)CC6)nn5)C[C@@H]4C)cc31)C(=O)N(C1CCC(=O)NC1=O)C2=O (stereo partly shown) 92

Repeat with CCn1c2c(c3ccc(OCCN4CCN(c5ccc(C(=O)N[C@H]6C(C)(C)[C@H](Oc7ccc(C#N)c(Cl)c7)C6(C)C)cc5)CC4)cc31)C(=O)N(C1CCC(=O)NC1=O)C2=O (stereo partly shown) 56

Repeat with N#Cc1ccc(O[C@H]2CC[C@H](NC(=O)c3ccc(N4CCN(CCCOc5ccc6c7c(n(CC(F)F)c6c5)C(=O)N(C5CCC(=O)NC5=O)C7=O)CC4)nn3)CC2)cc1Cl (stereo partly shown) 35

Repeat with CCn1c2c(c3ccc(OCCCN4CCC5(CC4)CN(c4ccc(C(=O)N[C@H]6CC[C@H](N(C)c7ccc(C#N)c(Cl)c7)CC6)nn4)C5)cc31)C(=O)N(C1CCC(=O)NC1=O)C2=O (stereo partly shown) 15

Repeat with CCn1c2c(c3ccc(OCCN4CCC5(CC4)CN(c4ccc(C(=O)N[C@H]6C(C)(C)[C@H](Oc7ccc(C#N)c(Cl)c7)C6(C)C)nn4)C5)cc31)C(=O)N(C1CCC(=O)NC1=O)C2=O (stereo partly shown) 20

Repeat with CCn1c2c(c3ccc(OCCN4CCN(c5ccc(C(=O)N[C@H]6CC[C@H](Oc7ccc(C#N)c(Cl)c7)CC6)nn5)C[C@H]4C)cc31)C(=O)N(C1CCC(=O)NC1=O)C2=O (stereo partly shown) 41

Repeat with CCn1c2c(c3ccc(OCCCOC4CCN(c5ccc(C(=O)N[C@H]6CC[C@H](Oc7ccc(C#N)c(Cl)c7)CC6)nn5)CC4)cc31)C(=O)N(C1CCC(=O)NC1=O)C2=O (stereo partly shown) 8

Repeat with CCn1c2c(c3ccc(OCCN4CCCN(c5ccc(C(=O)N[C@H]6C(C)(C)[C@H](Oc7ccc(C#N)c(Cl)c7)C6(C)C)nn5)CC4)cc31)C(=O)N(C1CCC(=O)NC1=O)C2=O (stereo partly shown) 77

Repeat with CCCn1c2c(c3ccc(OCCCN4CCN(c5ccc(C(=O)N[C@H]6C(C)(C)[C@H](Oc7ccc(C#N)c(Cl)c7)C6(C)C)cn5)CC4)cc31)C(=O)N(C1CCC(=O)NC1=O)C2=O (stereo partly shown) 89

Repeat with CCn1c2c(c3ccc(OCCCCN4CCN(c5ccc(C(=O)N[C@H]6CC[C@H](Oc7ccc(C#N)c(Cl)c7)CC6)nn5)CC4)cc31)C(=O)N(C1CCC(=O)NC1=O)C2=O (stereo partly shown) 7

Repeat with CCn1c2c(c3ccc(OCCCCCN4CCN(c5ccc(C(=O)N[C@H]6CC[C@H](N(C)c7ccc(C#N)c(Cl)c7)CC6)nn5)CC4)cc31)C(=O)N(C1CCC(=O)NC1=O)C2=O (stereo partly shown) 37

Repeat with C=Nc1ccc(O[C@H]2CC[C@H](NC(=O)c3ccc(N4CC5(CCN(CCCOc6ccc7c8c(n(CC(F)F)c7c6)C(=O)N(C6CCC(=O)NC6=O)C8=O)CC5)C4)nn3)CC2)cc1Cl (stereo partly shown) 11

Repeat with CCn1c2c(c3ccc(OCCOCCN4CCN(c5ccc(C(=O)N[C@H]6CC[C@H](N(C)c7ccc(C#N)c(Cl)c7)CC6)nn5)CC4)cc31)C(=O)N(C1CCC(=O)NC1=O)C2=O (stereo partly shown) 21

Origin of values: patent US20250197409A1
